Exercise: state measured STARD3 (DSF) ΔTmmax for each of the compounds provided.
# experimental-target: STARD3 (Homo sapiens, UniProt Q14849)
# Construct: STARD3(216-444); made in house; host or cells: E. coli BL21(DE3)
# Sequence (Q14849 216-444): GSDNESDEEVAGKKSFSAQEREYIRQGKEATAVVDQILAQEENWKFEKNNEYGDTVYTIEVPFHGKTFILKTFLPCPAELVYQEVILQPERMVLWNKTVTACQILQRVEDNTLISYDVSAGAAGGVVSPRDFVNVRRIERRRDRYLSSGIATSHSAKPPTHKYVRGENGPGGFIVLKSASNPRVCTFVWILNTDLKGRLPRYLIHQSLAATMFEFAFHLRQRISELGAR
# protocol-summary: Differential scanning fluorimetry (DSF), STARD3
# Type: binding
# test-context: maximal thermal shift
Answers are plain numbers, in °C.

These recorded examples may help you get a feel for the data.
- compound: "CC12CCC3CC1CCC21C(=Nc2ccc(Br)cc21)O3 (single isomer, unassigned; (+)) [(+)-15b]"
  numeric-result: 0.44
- compound: "CC12CCC3CC1CCC21C(=Nc2ccc(N4CCOCC4)cc21)O3 (single isomer, unassigned; (-)) [(−)-19a]"
  numeric-result: 0.9
- compound: "CCCCCNc1ccc2c(c1)[C@@]13CC[C@@H]4C[C@@H](CC[C@@]41C)OC3=N2 [Compound 19c]"
  numeric-result: 7.2
- compound: "CCCCN(C)c1ccc2c(c1)[C@@]13CC[C@@H]4C[C@@H](CC[C@@]41C)OC3=N2 [Compound 19d]"
  numeric-result: 3.9
- compound: "CC(C)(C)OC(=O)N1CCN(c2ccc3c(c2)C24CCC5CC(CCC52C)OC4=N3)CC1 (stereo not shown) [Compound 19e]"
  numeric-result: 8.0

Batch lookup, STARD3 (DSF) ΔTmmax per entry.
1. CC12CCC3CC1CCC21C(=Nc2ccc(NCc4ccccc4)cc21)O3 (stereo not shown) [Compound 19b]
2. C[C@]12CC[C@@H]3C[C@H]1CC[C@@]21C(=Nc2ccc(N4CCN(Cc5ccncc5)CC4)cc21)O3
3. CC12CCC3CC1CCC21C(=Nc2ccc(N4CCOCC4)cc21)O3 (single isomer, unassigned; (+)) [(+)-19a]
4. C[C@@]12CC[C@H]3C[C@@H]1CC[C@]21C(=Nc2ccc(Br)cc21)O3 [(−)-15b]
5. COc1ccc(-c2ccc3c(c2)C24CCC5CC(CCC52C)OC4=N3)cc1 (stereo not shown) [Compound 21b]

Ans.
1. 6.3
2. 6.7
3. 3.6
4. 0.7
5. 5.6

Ref: paper PMC11758220
